pIC50 values for the compounds below.
# Test system: Radical scavenging activity
# test-details: Superoxide radical scavenging activity of Cudriana tricuspidata extracts
# Type: functional, Maclura tricuspidata
As a rule, pIC50 stands for the negative log10 of the concentration, concentration in M.

Record CC(C)=CCc1c(O)c(O)cc2c(=O)c3c(O)c4c(cc3oc12)OC(C)C4(C)C (centres undefined) . Reported pIC50: 4.59

====

# Test system: A549
# test-details: Cytotoxicity against human cancer A549 cell line by MTT assay
# Format: functional
# test-settings: read-out: LD50 (the source's name)
Criterion: CC50 strictly less than 30 µM. Met: condition met. Not met: condition not met.

-- ask Given the entry C=CC(C)(C)c1c(OC)cc(O)c2c(=O)c3ccc(O)c(O)c3oc12 [ISOCUDRANIAXANTHONE B] , would its reported CC50 be below 30 µM?
-- reply condition not met

====

# Test system: A549
# test-details: Cytotoxicity against human cancer A549 cell line by MTT assay
# Type: functional
# test-settings: read-out: LD50 (the source's name)
parameter-measured: CC50 (µM)
Number in µM, nothing else.

// below: answered compounds
[
  {
    "query-smiles": "C=CC(C)(C)c1c(O)c(CC=C(C)C)c2oc3cc(O)c(O)cc3c(=O)c2c1O",
    "CC50 / µM": 25.8
  },
  {
    "query-smiles": "C=CC(C)(C)c1c(O)cc(O)c2c(=O)c3c(CC=C(C)C)c(O)c(O)cc3oc12",
    "CC50 / µM": 45.8
  },
  {
    "query-smiles": "C=CC(C)(C)c1c(O)cc(O)c2c(=O)c3cc(O)c4c(c3oc12)C=CC(C)(C)O4",
    "CC50 / µM": 61.9
  }
]

As a next step, examine the compound that follows.
Record C=CC(C)(C)c1c(O)cc(O)c2c(=O)c3c(CC=C(C)C)c(OC)c(O)cc3oc12 . Reported CC50: 61.7

====

# Test system: HT-29
# test-details: Cytotoxicity against human cancer HT29 cell line by MTT assay
# Format: functional
# test-settings: read-out: LD50 (the source's name)
parameter-measured: CC50 (µM)
Number in µM, nothing else.

[
  {
    "compound": "C=CC(C)(C)c1c(O)cc2oc3c(CC=C(C)C)c(O)c(O)cc3c(=O)c2c1O",
    "units-text": "µM",
    "experimental-value": 11.4
  },
  {
    "compound": "COc1cccc2c1C(=O)c1c(O)c3c(c(O)c1C2=O)C[C@@](O)(C(=O)CO)C[C@@H]3O[C@H]1C[C@H](N)[C@H](O)[C@H](C)O1",
    "units-text": "µM",
    "experimental-value": 1.8
  },
  {
    "compound": "C=CC(C)(C)c1c(O)cc(O)c2c(=O)c3c(CC=C(C)C)c(OC)c(O)cc3oc12",
    "units-text": "µM",
    "experimental-value": 50.7
  },
  {
    "compound": "C=CC(C)(C)c1c(O)cc(O)c2c(=O)c3cc(O)c4c(c3oc12)C=CC(C)(C)O4",
    "units-text": "µM",
    "experimental-value": 46.3
  },
  {
    "compound": "C=CC(C)(C)c1c(OC)cc(O)c2c(=O)c3ccc(O)c(O)c3oc12",
    "units-text": "µM",
    "experimental-value": 65
  }
]

Record C=CC(C)(C)c1c(O)c(CC=C(C)C)c2oc3cc(O)c(O)cc3c(=O)c2c1O . Reported CC50: 28

Record C=CC(C)(C)c1c(O)cc(O)c2c(=O)c3c(CC=C(C)C)c(O)c(O)cc3oc12 . Reported CC50: 41.4

Record C=CC(C)(C)c1c(OC)cc(O)c2c(=O)c3c(CC=C(C)C)c(O)c(O)cc3oc12 . Reported CC50: 20.7

Record CC(C)=CCc1c(O)c(O)cc2c(=O)c3c(O)c4c(cc3oc12)OC(C)C4(C)C (centres undefined) . Reported CC50: 12.1

====

# Test system: AGS
# test-details: Cytotoxicity against human cancer AGS cell line by MTT assay
# Type: functional
# test-settings: read-out: LD50 (the source's name)
parameter-measured: CC50

[
  {
    "compound": "C=CC(C)(C)c1c(O)cc(O)c2c(=O)c3c(CC=C(C)C)c(O)c(O)cc3oc12 [CUDRATRICUSXANTHONE A]",
    "parameter-measured": "CC50",
    "experimental-value": "32.8 µM"
  }
]

Record C=CC(C)(C)c1c(OC)cc(O)c2c(=O)c3c(CC=C(C)C)c(O)c(O)cc3oc12 [CUDRAXANTHONE D] . Reported CC50: 4.7 µM

====

pIC50 values for the compounds below.
# Test system: Radical scavenging activity
# test-details: DPPH radical scavenging activity of Cudriana tricuspidata extracts
# Assay type: functional, Maclura tricuspidata
As a rule, pIC50 stands for the negative log10 of the concentration, concentration in M.

[
  {
    "compound": "C=CC(C)(C)c1c(OC)cc(O)c2c(=O)c3c(CC=C(C)C)c(O)c(O)cc3oc12",
    "pIC50": 4.76
  },
  {
    "compound": "C=CC(C)(C)c1c(O)c(CC=C(C)C)c2oc3cc(O)c(O)cc3c(=O)c2c1O",
    "pIC50": 4.81
  },
  {
    "compound": "Cc1c(C)c2c(c(C)c1O)CCC(C)(C(=O)O)O2 (centres undefined)",
    "pIC50": 4.97
  },
  {
    "compound": "C=CC(C)(C)c1c(OC)cc(O)c2c(=O)c3ccc(O)c(O)c3oc12",
    "pIC50": 4.50
  },
  {
    "compound": "C=CC(C)(C)c1c(O)cc2oc3c(CC=C(C)C)c(O)c(O)cc3c(=O)c2c1O",
    "pIC50": 4.86
  },
  {
    "compound": "C=CC(C)(C)c1c(O)cc(O)c2c(=O)c3c(CC=C(C)C)c(O)c(O)cc3oc12",
    "pIC50": 4.67
  }
]

As a next step, examine the compound that follows.
Record CC(C)=CCc1c(O)c(O)cc2c(=O)c3c(O)c4c(cc3oc12)OC(C)C4(C)C (centres undefined) . Reported pIC50: 4.98

====

pIC50 values for the compounds below.
# Tested on: Radical scavenging activity
# test-details: Superoxide radical scavenging activity of Cudriana tricuspidata extracts
# Type: functional, Maclura tricuspidata
As a rule, pIC50 stands for the negative log10 of the concentration, concentration in M.

// below: answered compounds
[
  {
    "compound": "C=CC(C)(C)c1c(O)cc(O)c2c(=O)c3c(CC=C(C)C)c(OC)c(O)cc3oc12 [CUDRAXANTHONE C]",
    "target-entity": "Radical scavenging activity",
    "pIC50": 4.07
  },
  {
    "compound": "C=CC(C)(C)c1c(OC)cc(O)c2c(=O)c3c(CC=C(C)C)c(O)c(O)cc3oc12 [CUDRAXANTHONE D]",
    "target-entity": "Radical scavenging activity",
    "pIC50": 4.03
  }
]

Here C=CC(C)(C)c1c(O)cc(O)c2c(=O)c3cc(O)c4c(c3oc12)C=CC(C)(C)O4 was tested on Radical scavenging activity, and its pIC50 came to 4.19

Here C=CC(C)(C)c1c(O)cc2oc3c(CC=C(C)C)c(O)c(O)cc3c(=O)c2c1O [CUDRAXANTHONE L] was tested on Radical scavenging activity, and its pIC50 came to 4.63

Here C=CC(C)(C)c1c(O)c(CC=C(C)C)c2oc3cc(O)c(O)cc3c(=O)c2c1O [MACLURAXANTHONE B] was tested on Radical scavenging activity, and its pIC50 came to 4.32

Here C=CC(C)(C)c1c(OC)cc(O)c2c(=O)c3ccc(O)c(O)c3oc12 [ISOCUDRANIAXANTHONE B] was tested on Radical scavenging activity, and its pIC50 came to 4.53

Here C=CC(C)(C)c1c(O)cc(O)c2c(=O)c3c(CC=C(C)C)c(O)c(O)cc3oc12 [CUDRATRICUSXANTHONE A] was tested on Radical scavenging activity, and its pIC50 came to 4.29

Here Cc1c(C)c2c(c(C)c1O)CCC(C)(C(=O)O)O2 (stereo not drawn) [TROLOX] was tested on Radical scavenging activity, and its pIC50 came to 4.47

====

# Tested on: A549
# test-details: Cytotoxicity against human cancer A549 cell line by MTT assay
# Format: functional
# test-settings: read-out: LD50 (the source's name)
parameter-measured: CC50 (µM)
Number in µM, nothing else.

[
  {
    "compound": "C=CC(C)(C)c1c(O)cc2oc3c(CC=C(C)C)c(O)c(O)cc3c(=O)c2c1O [CUDRAXANTHONE L]",
    "units-text": "µM",
    "CC50": 33.5
  }
]

Record C=CC(C)(C)c1c(OC)cc(O)c2c(=O)c3c(CC=C(C)C)c(O)c(O)cc3oc12 [CUDRAXANTHONE D] . Reported CC50: 16.3

Record CC(C)=CCc1c(O)c(O)cc2c(=O)c3c(O)c4c(cc3oc12)OC(C)C4(C)C (centres undefined) [CUDRAXANTHONE M] . Reported CC50: 11.8

Record COc1cccc2c1C(=O)c1c(O)c3c(c(O)c1C2=O)C[C@@](O)(C(=O)CO)C[C@@H]3O[C@H]1C[C@H](N)[C@H](O)[C@H](C)O1 [DOXORUBICIN] . Reported CC50: 1.3

src = ChEMBL document CHEMBL1141243
